system: LoVo-Dox; test: SRB colorimetric cell growth inhibition assay, LoVo-Dox (MDR); format: cell-based; conditions: Homo sapiens, LOVO-DOX; GI=growth inhibition; read-out: GI50 LOVO-DOX
Label 1.0 when GI50 < 400 nM; otherwise 0.0.

# Test Smiles, Target Entity, Class
measured = [
    ("COc1cc(-c2c3c4cc(OC)c(OC(=O)[C@@H](N)C(C)C)cc4oc(=O)c3n3ccc4cc(OC(=O)[C@@H](N)C(C)C)c(OC)cc4c23)ccc1OC(=O)[C@@H](N)C(C)C", "LoVo-Dox", 1.0),
    ("COc1cc2c(cc1OC)-c1c(-c3ccc(OS(C)(=O)=O)c(OC)c3)c3c4cc(OC)c(OS(C)(=O)=O)cc4oc(=O)c3n1CC2", "LoVo-Dox", 0.0),
    ("COc1cc2c(cc1O)CCn1c-2c(Br)c2c3cc(OC)c(O)cc3oc(=O)c21", "LoVo-Dox", 0.0),
    ("CC[C@H](C)[C@H](N)C(=O)Oc1ccc(-c2c3c4cc(OC)c(OC(=O)[C@@H](N)[C@@H](C)CC)cc4oc(=O)c3n3ccc4cc(OC(=O)[C@@H](N)[C@@H](C)CC)c(OC)cc4c23)cc1OC", "LoVo-Dox", 1.0),
    ("COc1cc(-c2c3c4cc(OC)c(OC(=O)[C@H](N)C(C)C)cc4oc(=O)c3n3ccc4cc(OC(=O)[C@H](N)C(C)C)c(OC)cc4c23)ccc1OC(=O)[C@H](N)C(C)C", "LoVo-Dox", 1.0),
]

====

test system: K-562; experiment: SRB colorimetric cell growth inhibition assay, K-562; format: cell-based; settings: K-562; total growth inhibition (cytostatic effect)
Let's look at some molecules and their measured TGI K-562.
Property: TGI K-562 (Molar)

# Molecule, Property, Recorded Result
data = [
    ("COc1cc2c(cc1O)oc(=O)c1c2c(-c2ccc(OC(=O)[C@H](C)N)c(OC)c2)c2c3cc(OC)c(O)cc3ccn21.Cl", "TGI K-562", "2.47E−07"),
    ("COc1cc(-c2c3n(c4c(=O)oc5cc(OS(C)(=O)=O)c(OC)cc5c24)CCc2cc(OS(C)(=O)=O)c(OC)cc2-3)ccc1OS(C)(=O)=O", "TGI K-562", "4.77E−06"),
    ("COc1cc(-c2c3c4cc(OC)c(OC(=O)[C@H](C)N)cc4oc(=O)c3n3ccc4c(OC(=O)[C@H](C)N)c(OC)c(OC)cc4c23)ccc1OC(=O)[C@H](C)N [Compound 191]", "TGI K-562", "1.69E−06"),
    ("COc1cc(-c2c3n(c4c(=O)oc5cc(OC(C)=O)c(OC)cc5c24)CCc2cc(OC)c(OC(C)=O)cc2-3)ccc1OC(C)=O", "TGI K-562", "1.82E−06"),
    ("COc1cc(-c2c3c4cc(OC)c(OC(=O)[C@H](C)N)cc4oc(=O)c3n3ccc4cc(O)c(OC)cc4c23)ccc1O.Cl", "TGI K-562", "4.50E−07"),
    ("COc1cc(-c2c3c4cc(OC)c(OC(=O)[C@H](C)N)cc4oc(=O)c3n3ccc4c(OC(=O)[C@H](C)N)c(OC)c(OC)cc4c23)ccc1OC(=O)[C@H](C)N [Compound 16]", "TGI K-562", "4.45E−07"),
]

====

Readings of GI50 for the listed molecules
system: HT-29; experiment: SRB colorimetric cell growth inhibition assay, HT-29; assay type: cell-based; conditions: Homo sapiens, HT-29, HT-29; GI=growth inhibition; read-out: GI50 HT-29
Property: GI50 (nM)

# Molecule, Target Entity, Recorded Result
data = [
    ("COc1cc(-c2c3n(c4c(=O)oc5cc(OC(=O)[C@@H](N)COCc6ccccc6)c(OC)cc5c24)CCc2c-3cc(OC)c(OC)c2OC(=O)[C@@H](N)COCc2ccccc2)ccc1OC(=O)[C@@H](N)COCc1ccccc1 [Compound 66]", "HT-29", 2770),
    ("COc1cc(-c2c3c4cc(OC)c(OC(=O)[C@@H](N)Cc5ccccc5)cc4oc(=O)c3n3ccc4cc(OC(=O)[C@@H](N)Cc5ccccc5)c(OC)cc4c23)ccc1OC(=O)[C@@H](N)Cc1ccccc1 [Compound 204]", "HT-29", 1400),
]

====

tested on: IGROV-ET; assay: SRB colorimetric cell growth inhibition assay, IGROV-ET (ET-743 resistant); format: cell-based; settings: Homo sapiens, IGROV-ET; total growth inhibition (cytostatic effect); read-out: TGI IGROV-ET
In this section, each of the molecules is paired with its reported IC (TGI).

# Molecule, IC (TGI) (µM)
rows = [
    ("COc1cc(-c2c3n(c4c(=O)oc5cc(OC(=O)[C@@H](N)Cc6c[nH]c7ccccc67)c(OC)cc5c24)CCc2cc(OC(=O)[C@@H](N)Cc4c[nH]c5ccccc45)c(OC)cc2-3)ccc1OC(=O)[C@@H](N)Cc1c[nH]c2ccccc12 [Compound 24]", 7.13),
    ("COc1cc(-c2c3n(c4c(=O)oc5cc(OC(=O)[C@H](NC(=O)OC(C)(C)C)C(C)C)c(OC)cc5c24)CCc2cc(OC(=O)[C@H](NC(=O)OC(C)(C)C)C(C)C)c(OC)cc2-3)ccc1OC(=O)[C@H](NC(=O)OC(C)(C)C)C(C)C [Compound 34]", 4.63),
]

====

tested on: LoVo; assay: SRB colorimetric cell growth inhibition assay, LoVo; assay type: cell-based; settings: LOVO; cell killing (cytotoxic effect); read-out: LC50 LOVO

# Compound, Target Entity, CC50 [µM]
records = [
    ("COc1cc(-c2c3n(c4c(=O)oc5cc(OS(C)(=O)=O)c(OC)cc5c24)CCc2cc(OS(C)(=O)=O)c(OC)cc2-3)ccc1OS(C)(=O)=O", "LoVo", 13.6),
    ("COc1cc(-c2c3c4cc(OC)c(OC(=O)[C@H](C)N)cc4oc(=O)c3n3ccc4c(OC(=O)[C@H](C)N)c(OC)c(OC)cc4c23)ccc1OC(=O)[C@H](C)N [Compound 191]", "LoVo", 7.9),
    ("COc1cc2ccn3c(c(-c4ccc(OC(=O)[C@@H](N)Cc5ccccc5)c(OC)c4)c4c5cc(OC)c(OC(=O)[C@@H](N)Cc6ccccc6)cc5oc(=O)c43)c2cc1OC", "LoVo", 9.02),
]

====

tested on: IGROV-ET; experiment: SRB colorimetric cell growth inhibition assay, IGROV-ET (ET-743 resistant); format: cell-based; details: Homo sapiens, IGROV-ET; total growth inhibition (cytostatic effect); read-out: TGI IGROV-ET

# Compound, IC (TGI)
rows = [
    ("COc1cc2c(cc1OC)-c1c(-c3ccc(OC(=O)[C@H](C)NC(=O)OC(C)(C)C)c(OC)c3)c3c4cc(OC)c(OC(=O)[C@H](C)NC(=O)OC(C)(C)C)cc4oc(=O)c3n1CC2", "5.18 µM"),
    ("COc1cc(-c2c3c4cc(OC)c(O)cc4oc(=O)c3n3ccc4cc(O)c(OC)cc4c23)ccc1O [Compound 3, lamellarin D, reference compound]", "1.16 µM"),
    ("COc1cc(-c2c3c4cc(OC)c(OC(=O)[C@H](N)C(C)C)cc4oc(=O)c3n3ccc4cc(OC(=O)[C@H](N)C(C)C)c(OC)cc4c23)ccc1OC(=O)[C@H](N)C(C)C", "0.544 µM"),
    ("COc1cc(-c2c3c4cc(OC)c(OC(=O)[C@H](C)N)cc4oc(=O)c3n3ccc4cc(OC(=O)[C@H](C)N)c(OC)cc4c23)ccc1OC(=O)[C@H](C)N", "0.159 µM"),
    ("COc1cc(-c2c3n(c4c(=O)oc5cc(O)c(OC)cc5c24)CCc2c-3cc(OC)c(OC)c2O)ccc1O", "1.2 µM"),
]

====

Tested on: K-562
Test: SRB colorimetric cell growth inhibition assay, K-562
Assay type: cell-based
Conditions: Homo sapiens, K562, K-562; TGI=total growth inhibition (cytostatic effect); read-out: TGI K-562
Method: The finality of these assays is to interrupt the growth of an “in vitro” tumor cell culture by means a continued exhibition of the cells to the sample to be testing. A colorimetric type of assay, using sulforhodamine B (SRB) reaction has been adapted for a quantitative measurement of cell growth and viability (following the technique described by P. A. Skehan, et al., J. Natl. Cancer Inst. 1990, 82, 1107-1112). […] The values for mean +/− SD of data from triplicate wells are calculated. […]
Category | rule: reported IC (TGI) within range, see 1 (below 2000 nM), 2 (2000 nM to below 4000 nM), 3 (4000 nM or more)

# Molecule, Class
rows = [
    ("COc1cc(-c2c3c4cc(OC)c(O)cc4oc(=O)c3n3ccc4c([N+](=O)[O-])cccc4c23)ccc1O [Compound 53]", 3),
    ("COc1cc(-c2c3c4cc(OC)c(OC(=O)[C@@H](NC(=O)OC(C)(C)C)C(C)C)cc4oc(=O)c3n3ccc4cc(OC(=O)[C@@H](NC(=O)OC(C)(C)C)C(C)C)c(OC)cc4c23)ccc1OC(=O)[C@@H](NC(=O)OC(C)(C)C)C(C)C [Compound 38]", 1),
    ("COc1cc2c(cc1OC)-c1c(-c3ccc(OC(=O)CCCC[C@@H]4SC[C@@H]5NC(=O)N[C@@H]54)c(OC)c3)c3c4cc(OC)c(OC(=O)CCCC[C@@H]5SC[C@@H]6NC(=O)N[C@@H]65)cc4oc(=O)c3n1CC2 [Compound 47]", 2),
    ("COc1cc(-c2c3c4cc(OC)c(OC(=O)[C@@H](N)CC(C)C)cc4oc(=O)c3n3ccc4cc(OC(=O)[C@@H](N)CC(C)C)c(OC)cc4c23)ccc1OC(=O)[C@@H](N)CC(C)C [Compound 39]", 1),
    ("COc1cc(-c2c3c4cc(OC)c(OC(=O)[C@H](C)N)cc4oc(=O)c3n3ccc4cc(OC(=O)[C@H](C)N)c(OC)cc4c23)ccc1OC(=O)[C@H](C)N [Compound 40]", 1),
    ("COc1cc(-c2c3c4cc(OC)c(OC(=O)[C@@H]5CCCN5)cc4oc(=O)c3n3ccc4cc(OC(=O)[C@@H]5CCCN5)c(OC)cc4c23)ccc1OC(=O)[C@@H]1CCCN1 [Compound 33]", 1),
    ("COc1cc2c(cc1OC)-c1c(-c3ccc(OS(C)(=O)=O)c(OC)c3)c3c4cc(OC)c(OS(C)(=O)=O)cc4oc(=O)c3n1CC2 [Compound 92]", 3),
    ("COc1cc(-c2c3c4cc(OC)c(OC(=O)[C@H](C)NC(=O)OC(C)(C)C)cc4oc(=O)c3n3ccc4cc(OC(=O)[C@H](C)NC(=O)OC(C)(C)C)c(OC)cc4c23)ccc1OC(=O)[C@H](C)NC(=O)OC(C)(C)C [Compound 41]", 2),
    ("COc1cc(-c2c3c4cc(OC)c(OC(=O)[C@@H](N)Cc5ccccc5)cc4oc(=O)c3n3ccc4c(OC(=O)[C@@H](N)Cc5ccccc5)c(OC)c(OC)cc4c23)ccc1OC(=O)[C@@H](N)Cc1ccccc1 [Compound 31]", 2),
    ("COc1cc(-c2c3n(c4c(=O)oc5cc(OC(=O)[C@@H](N)CO)c(OC)cc5c24)CCc2c-3cc(OC)c(OC)c2OC(=O)[C@@H](N)CO)ccc1OC(=O)[C@@H](N)CO [Compound 59]", 2),
    ("COc1cc2c(cc1OC)-c1c(-c3ccc(OC(=O)[C@H](C)N)c(OC)c3)c3c4cc(OC)c(OC(=O)[C@H](C)N)cc4oc(=O)c3n1CC2 [Compound 63]", 3),
    ("COc1cc2c(cc1OC)-c1c(-c3ccc(OC(=O)[C@H](Cc4ccccc4)NC(=O)OC(C)(C)C)c(OC)c3)c3c4cc(OC)c(OC(=O)[C@H](Cc5ccccc5)NC(=O)OC(C)(C)C)cc4oc(=O)c3n1CC2 [Compound 84]", 2),
    ("COc1cc(-c2c3c4cc(OC)c(OC(C)C)cc4oc(=O)c3n3ccc4c([N+](=O)[O-])cccc4c23)ccc1OC(C)C [Compound 54]", 3),
    ("COc1cc(-c2c3n(c4c(=O)oc5cc(N)c(OC)cc5c24)CCc2cc(OC)c(OC)cc2-3)ccc1N [Compound 57]", 3),
    ("COc1cc(-c2c3c4cc(OC)c(OC(=O)[C@@H](N)CC(C)C)cc4oc(=O)c3n3ccc4c(OC(=O)[C@@H](N)CC(C)C)c(OC)c(OC)cc4c23)ccc1OC(=O)[C@@H](N)CC(C)C [Compound 45]", 1),
    ("COc1cc(-c2c3n(c4c(=O)oc5cc(OC(=O)[C@H](N)C(C)C)c(OC)cc5c24)CCc2cc(OC(=O)[C@H](N)C(C)C)c(OC)cc2-3)ccc1OC(=O)[C@H](N)C(C)C [Compound 32]", 2),
    ("COc1cc(-c2c3n(c4c(=O)oc5cc(OC(=O)[C@H](NC(=O)OC(C)(C)C)C(C)C)c(OC)cc5c24)CCc2cc(OC(=O)[C@H](NC(=O)OC(C)(C)C)C(C)C)c(OC)cc2-3)ccc1OC(=O)[C@H](NC(=O)OC(C)(C)C)C(C)C [Compound 34]", 2),
    ("COc1cc(-c2c3n(c4c(=O)oc5cc(OC(=O)[C@@H](N)COCc6ccccc6)c(OC)cc5c24)CCc2c-3cc(OC)c(OC)c2OC(=O)[C@@H](N)COCc2ccccc2)ccc1OC(=O)[C@@H](N)COCc1ccccc1 [Compound 66]", 2),
]
